The reported measurements were obtained from patent US11976072B2.

target: human DGKα (Homo sapiens, UniProt P23743); assay: DGKα Biochemical Activity Assay (ADP-Glo); settings: recombinant DGKα 1 nM, 100 μM ATP, 18:1 DAG/POPS/octylglucoside micelles, 1 hour at 25° C.; geometric mean; read-out: HTBS DGKa 1X ATP KM IC50
Sequence (P23743 whole entry): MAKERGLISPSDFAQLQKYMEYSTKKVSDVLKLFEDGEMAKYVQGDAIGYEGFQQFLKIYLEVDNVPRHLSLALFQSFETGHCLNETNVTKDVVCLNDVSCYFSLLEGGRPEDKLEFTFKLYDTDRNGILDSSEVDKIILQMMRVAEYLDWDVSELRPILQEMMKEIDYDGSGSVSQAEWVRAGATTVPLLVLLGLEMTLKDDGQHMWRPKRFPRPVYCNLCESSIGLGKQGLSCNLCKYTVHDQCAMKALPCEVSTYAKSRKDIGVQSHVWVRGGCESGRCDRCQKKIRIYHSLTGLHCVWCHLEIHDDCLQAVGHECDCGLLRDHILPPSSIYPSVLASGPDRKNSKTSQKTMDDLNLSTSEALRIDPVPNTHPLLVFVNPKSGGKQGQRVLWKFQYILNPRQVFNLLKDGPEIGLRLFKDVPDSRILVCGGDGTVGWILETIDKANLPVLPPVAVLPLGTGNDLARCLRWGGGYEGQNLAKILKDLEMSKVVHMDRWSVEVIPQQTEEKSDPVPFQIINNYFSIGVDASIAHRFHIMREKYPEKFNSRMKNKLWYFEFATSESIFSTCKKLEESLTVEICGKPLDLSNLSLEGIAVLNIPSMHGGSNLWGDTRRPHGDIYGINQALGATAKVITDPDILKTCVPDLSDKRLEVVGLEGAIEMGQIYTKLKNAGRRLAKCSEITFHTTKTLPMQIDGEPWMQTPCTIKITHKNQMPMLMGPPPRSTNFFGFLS
# binning rule on IC50: bin A = under 7 nM, bin B = from 7 nM up to 10 nM, bin C = 10 nM and over

> print(dat)
                              smiles.record                            assayed.target  category
1  Cc1nnc2nc(N(CC(F)F)c3ccnc(C#CC4(C(F)(F)F)CC4)c3)c3c(F)c(F)ccc3n12  human DGKα (Homo sapiens, UniProt P23743)     bin C

Please let me know in which category the item "CC1(C#Cc2cc(F)cc(N(CC(F)F)c3nc4nncn4c4c(Cl)cc(F)cc34)c2)CC1" belongs.
bin C

Band for "Cc1nnc2nc(N3CCCc4c(C#Cc5cncn5C)cccc43)c3cc(F)ccc3n12" ?
bin C

Assign a category based on measured IC50 for "Cc1nnc2nc(N3CCCc4c(C#Cc5cnn(C)c5)cccc43)c3c(F)cccc3n12" and give only the class name.
bin A

Which bin, given its IC50, does "Cc1nnc2nc(N(CC(F)F)c3cc(F)cc(C#CC(C)(C)O)c3)c3c(F)cc(Cl)cc3n12" occupy?
bin B

# bin label for "Cc1nnc2nc(N3CCCCc4c(C#CC5(C)CC5)cncc43)c3cc(F)ccc3n12"
bin C

In plain terms, what class is "COc1ccc(C#Cc2cc(N(CC(F)F)c3nc4nnc(C)n4c4cccc(F)c34)ccn2)cn1" ?
bin A

Exam item: assign "Cc1nnc2nc(N3CCCc4c(C#CC5CC5)cccc43)c3c(F)c(F)ccc3n12" to the correct category.
bin B

Assign a category based on measured IC50 for "Cc1nnc2nc(N3CCN(C)Cc4c(C#CC5(C(F)(F)F)CC5)cccc43)c3cc(F)ccc3n12" and give only the class name.
bin B

Classify this compound: "Cc1nnc2nc(N3CCCCc4c(C#CC(C)(C)C#N)cccc43)c3c(F)c(F)ccc3n12"
bin A

The entry to classify is "Cc1nc(C(C)(C)C#Cc2cccc3c2CCCN3c2nc3nnc(C)n3c3cccc(F)c23)oc1C" ; which class holds it?
bin C

###

target: human DGKα (Homo sapiens, UniProt P23743); assay: DGKα Biochemical Activity Assay (ADP-Glo); conditions: recombinant DGKα 1 nM, 100 μM ATP, 18:1 DAG/POPS/octylglucoside micelles, 1 hour at 25° C.; geometric mean; read-out: HTBS DGKa 1X ATP KM IC50;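 further: luminescent detection of ADP produced as DGKα phosphorylates DAG to phosphatidic acid, IC50 from four-parameter nonlinear curve fit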
Form field: pIC50 (one value per entry).
Conceptually, pIC50 converts a concentration in mol/L into minus its log10.

Look over these answered cases.
> print(dat)
                                   molecule  measured
1  Cc1nnc2nc(N3CCCc4c(C#CC(C)(C)CO)cccc43)c3cc(F)ccc3n12 [Example 235]      8.16
2  Cc1nnc2nc(N3CCCc4c(C#CC(C)(C)C#N)cccc43)c3c(Cl)c(F)ccc3n12 [Example 36]      8.00

Now consider a different molecule.
So for Cc1nnc2nc(N3CCCc4c(C#CC(C)(C)C#N)cccc43)c3c(F)c(F)ccc3n12 [Example 240] , the logged pIC50 turned out to be 8.15
